- targetUnderTest: 5-hydroxytryptamine receptor 2B (Homo sapiens, UniProt P41595)
- Sequence (P41595 whole entry): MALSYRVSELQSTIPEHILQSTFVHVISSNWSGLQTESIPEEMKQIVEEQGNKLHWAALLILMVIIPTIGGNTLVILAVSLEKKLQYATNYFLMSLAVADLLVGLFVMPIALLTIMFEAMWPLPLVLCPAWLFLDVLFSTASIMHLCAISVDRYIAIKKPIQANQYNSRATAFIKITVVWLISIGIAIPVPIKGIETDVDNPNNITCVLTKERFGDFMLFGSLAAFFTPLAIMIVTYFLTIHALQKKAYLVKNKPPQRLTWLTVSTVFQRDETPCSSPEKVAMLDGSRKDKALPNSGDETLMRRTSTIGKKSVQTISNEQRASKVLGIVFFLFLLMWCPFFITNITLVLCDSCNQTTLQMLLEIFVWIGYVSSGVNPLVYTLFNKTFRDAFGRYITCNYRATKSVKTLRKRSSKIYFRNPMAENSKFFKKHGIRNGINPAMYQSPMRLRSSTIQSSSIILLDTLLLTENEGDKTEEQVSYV
- test: Antagonist activity at human recombinant 5-HT2B receptor expressed in Flp-In HEK cells in the presence of agonist preincubated for 10 mins by FLIPR based calcium mobilization assay
valueKind: IC50 (µM)
Record the value in µM, omitting the unit from your answer.

Solved cases below.
- COc1cccc(CCCN(CCc2ccc(OC)c(OC)c2)CCc2ccc3c(c2)OCO3)c1: 1.26
- COc1ccc(CCN(CCc2ccccc2)CCc2ccc3c(c2)OCO3)cc1OC: 10
- COc1ccccc1CCCN(CCc1ccc(OC)c(OC)c1)CCc1ccc2c(c1)OCO2: 10

For the next question, use this compound.
Look at this compound and give its reported IC50. COc1ccc(CCN(CC/C=C\c2ccccc2)Cc2ccc3c(c2)OCO3)cc1OC 6.31

# credit: ChEMBL document CHEMBL3734659
